# Test system: Plasmodium falciparum
# measurement_notes: GSK_TCMDC: Inhibition of Plasmodium falciparum 3D7 in whole red blood cells, using parasite LDH activity as an index of growth. Test compounds present at 2uM
# Assay type: functional
measured_property: Inhibition (%)

>>> assay_value("COc1cc(CN2CCC(N3CCc4cc(NC(=O)c5cc(C)on5)ccc43)C2)ccc1F (stereo unspecified)")
91
>>> assay_value("Cc1cccc2nc(-c3ccc(-c4cccc(NC(=O)Nc5cccc(C#N)c5)c4)cc3)[nH]c12")
100
>>> assay_value("CCN(C(=O)NC)C1c2cc(C#N)ccc2OC(C)(C)C1O (stereo unspecified)")
96
>>> assay_value("C#C[C@H]1O[C@@H](n2cnc3c(Nc4cc(Br)cc(C(F)(F)F)c4)ncnc32)[C@H](O)[C@@H]1O")
94
>>> assay_value("COc1ccccc1C1CCN(C2CCC(NC(=O)/C=C/c3ccc(F)c(F)c3)CC2)CC1 (stereo unspecified)")
94
>>> assay_value("Cc1ccc(NC(=O)NC2CCN(CCC(NC(=O)Cc3ccccc3)c3ccc(Cl)c(Cl)c3)CC2)cc1 (stereo unspecified)")
100
